Data credit: patent US20180099931A1

- TARGET: F508delCFTR (Homo sapiens, UniProt P13569, DEL508-508)
- Construct: expressed in transfected cells; host or cells: CFBE41o- human lung-derived epithelial cells (CFBE4lo-F508delCFTR-HRP), doxycycline-inducible
- Sequence (P13569 with tags, fused parts or gaps DEL508-508): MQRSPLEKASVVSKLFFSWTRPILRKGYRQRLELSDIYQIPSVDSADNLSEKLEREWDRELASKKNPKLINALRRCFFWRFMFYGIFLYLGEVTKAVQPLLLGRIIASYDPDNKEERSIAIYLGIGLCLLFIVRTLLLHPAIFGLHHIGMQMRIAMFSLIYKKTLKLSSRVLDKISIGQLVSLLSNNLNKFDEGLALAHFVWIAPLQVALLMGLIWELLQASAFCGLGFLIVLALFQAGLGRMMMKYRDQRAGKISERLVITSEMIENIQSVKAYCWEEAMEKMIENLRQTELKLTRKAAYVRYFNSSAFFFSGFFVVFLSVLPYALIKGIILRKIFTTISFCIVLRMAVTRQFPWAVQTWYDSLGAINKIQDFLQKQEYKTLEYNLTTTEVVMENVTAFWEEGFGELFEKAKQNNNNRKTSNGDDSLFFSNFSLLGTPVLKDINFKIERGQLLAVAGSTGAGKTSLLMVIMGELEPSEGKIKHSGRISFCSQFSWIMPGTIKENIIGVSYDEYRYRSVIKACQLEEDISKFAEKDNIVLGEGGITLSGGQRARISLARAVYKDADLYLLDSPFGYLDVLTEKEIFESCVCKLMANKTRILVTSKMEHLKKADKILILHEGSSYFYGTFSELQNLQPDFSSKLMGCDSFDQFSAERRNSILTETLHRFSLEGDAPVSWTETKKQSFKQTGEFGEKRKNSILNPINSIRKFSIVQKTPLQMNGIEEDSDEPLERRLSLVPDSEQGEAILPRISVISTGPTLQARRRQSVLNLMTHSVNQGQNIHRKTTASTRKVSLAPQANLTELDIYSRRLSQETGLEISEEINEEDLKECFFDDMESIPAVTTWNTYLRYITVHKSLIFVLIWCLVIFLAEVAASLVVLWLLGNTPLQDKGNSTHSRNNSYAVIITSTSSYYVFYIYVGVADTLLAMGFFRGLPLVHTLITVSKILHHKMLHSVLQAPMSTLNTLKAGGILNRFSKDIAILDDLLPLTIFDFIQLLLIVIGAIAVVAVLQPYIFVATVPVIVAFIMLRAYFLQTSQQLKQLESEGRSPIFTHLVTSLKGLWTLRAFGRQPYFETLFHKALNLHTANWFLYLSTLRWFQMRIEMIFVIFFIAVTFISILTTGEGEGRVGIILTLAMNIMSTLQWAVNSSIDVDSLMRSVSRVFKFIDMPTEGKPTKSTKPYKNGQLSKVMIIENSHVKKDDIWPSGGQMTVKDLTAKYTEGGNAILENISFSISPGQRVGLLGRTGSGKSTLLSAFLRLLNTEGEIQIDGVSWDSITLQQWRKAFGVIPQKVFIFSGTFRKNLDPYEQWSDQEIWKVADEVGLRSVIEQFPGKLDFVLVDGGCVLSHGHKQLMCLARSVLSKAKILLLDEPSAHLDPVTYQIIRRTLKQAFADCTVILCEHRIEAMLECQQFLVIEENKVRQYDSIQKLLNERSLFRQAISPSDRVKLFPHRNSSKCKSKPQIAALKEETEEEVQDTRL
- ASSAY PROCEDURE: Cell Surface Expression-Horse Radish Peroxidase (CSE-HRP) Assay
- Type: cell-based
- ASSAY SETUP: test compound without co-corrector; read-out: EC50 (without co-corrector)
Listing of recorded EC50 by entry.

COMPOUND	EC50
COc1ccc(C(F)(F)F)cc1CN[C@H]1[C@H](C(C)(C)C)[C@@H](C(=O)O)N(C(=O)OC(C)C)[C@H]1c1ccccc1C(C)C [Example 83]	1 to 10 µM
COc1cc(C(F)(F)F)ccc1CN[C@H]1[C@H](C(C)(C)C)[C@@H](C(=O)O)N(C(=O)OC(C)C)[C@H]1c1cccnc1OC(C)C [Example 81]	1 to 10 µM
COc1nc(C(C)(C)C)ccc1CN[C@H]1[C@H](C(C)(C)C)[C@@H](C(=O)O)N(C(=O)OC(C)C)[C@H]1c1cccnc1OC(C)C [II-557]	1 to 10 µM
COc1cc(C(F)(F)F)ccc1CN[C@@H]1[C@@H](C(C)(C)C)[C@H](C(=O)O)N(C(=O)[C@H]2CCCCO2)[C@@H]1c1ccccc1 [III-117]	> 10 µM
COc1ncc(-c2ccc(F)cc2C)cc1CN[C@H]1[C@H](C(C)(C)C)[C@@H](C(=O)O)N(C(=O)C2CCCCC2)[C@H]1c1cccnc1N(C)C [II-409]	1 to 10 µM
COc1cccc([C@@H]2[C@H](NCc3cc(C(F)(F)F)ccc3OC)[C@@H](C(C)(C)C)[C@H](C(=O)O)N2C(=O)C2CCCCO2)n1 (mixture of isomers) [Example I-23]	1 to 10 µM

----------
Listing of recorded pEC50 by entry.
- TARGET: F508delCFTR (Homo sapiens, UniProt P13569, DEL508-508)
- Construct: expressed in transfected cells; host or cells: CFBE41o- human lung-derived epithelial cells (CFBE4lo-F508delCFTR-HRP), doxycycline-inducible
- ASSAY PROCEDURE: Cell Surface Expression-Horse Radish Peroxidase (CSE-HRP) Assay
- Type: cell-based
- ASSAY SETUP: test compound without co-corrector; read-out: EC50 (without co-corrector)
pEC50: −log10 of the molar value.

COMPOUND	pEC50
COc1ccc(C(C)(C)C)cc1CN[C@H]1[C@H](C(C)(C)C)[C@@H](C(=O)O)N(C(=O)C2CC(F)(F)C2)[C@H]1c1ccccc1 [II-336]	5.00 to 6.00
CC(C)(C)[C@H]1[C@H](Nc2ccc(Cn3ccccc3=O)cn2)[C@H](c2ccccc2)N(C(=O)C2CCCCC2)[C@@H]1C(=O)O [III-153]	< 5.00
Cc1cc(C(F)(F)F)cc(N[C@H]2[C@H](C(C)(C)C)[C@@H](C(=O)O)N(C(=O)C3CCCC(F)(F)C3)[C@H]2c2cccnc2N(C)C)n1 (stereo partly drawn) [II-503]	5.00 to 6.00
COc1ccc(C(F)(F)F)cc1CN[C@H]1[C@H](C(C)(C)C)[C@@H](C(=O)O)N(C(=O)C2CCCCC2)[C@H]1c1cccnc1OC [II-573]	5.00 to 6.00
COc1ccc(C(F)(F)F)cc1CN[C@H]1[C@H](C(C)(C)C)[C@@H](C(=O)O)N(C(=O)C2CCC(C)(C)C2)[C@H]1c1ccccc1 (stereo partly drawn) [III-197]	> 6.00
Cc1cc(C(F)(F)F)cc(N[C@H]2[C@H](C(C)(C)C)[C@@H](C(=O)O)N(C(=O)OC(C)C)[C@H]2c2ccccc2C(C)C)n1 [Example 82]	5.00 to 6.00

----------
- TARGET: F508delCFTR (Homo sapiens, UniProt P13569, DEL508-508)
- Construct: expressed in transfected cells; host or cells: CFBE41o- human lung-derived epithelial cells (CFBE4lo-F508delCFTR-HRP), doxycycline-inducible
- ASSAY PROCEDURE: Cell Surface Expression-Horse Radish Peroxidase (CSE-HRP) Assay;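 for Maximum % activity (without co-corrector): percent of the 2 µM on-plate positive control corrector response above DMSO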
- Assay type: cell-based
- ASSAY SETUP: without co-corrector; maximum at any tested concentration, normalized to on-plate positive control; read-out: Maximum % activity (without co-corrector)
- Description: Cell Surface Expression-Horse Radish Peroxidase (CSE-HRP) Assay The development was achieved by expressing the F508delCFTR mutation along with a horseradish peroxidase (HRP) in the fourth exofacial loop, and then measuring the HRP activity using luminescence readout from these cells, CFBE4lo-F508delCFTR-HRP, that were incubated overnight with the test corrector compounds, either without or with the co-corrector. […] The raw counts from the experiment were analyzed using Accelrys® Assay Explorer v3.3. […]
PROPERTY: Emax

MOLECULE	PROPERTY	ASSAY VALUE
COc1ccc(C(C)(C)C)cc1CN[C@H]1[C@H](C(C)(C)C)[C@@H](C(=O)O)N(C(=O)[C@@H]2OCC[C@@H]2C(C)C)[C@H]1c1ccccc1 (relative stereo) [Example I-104]	Emax	100 to 200%
COc1ncc(C2CCC2)cc1CN[C@H]1[C@H](C(C)(C)C)[C@@H](C(=O)O)N(C(=O)OC(C)C)[C@H]1c1ccccc1C(C)C [Example 68]	Emax	> 200%
COc1ccc(C(C)(C)C)cc1CN[C@H]1[C@H](C(C)(C)C)[C@@H](C(=O)O)N(C(=O)C2CC3CCC(C2)O3)[C@H]1c1ccccc1 (stereo partly drawn) [Example I-172]	Emax	> 200%
COc1ccc(C(F)(F)F)cc1CN[C@H]1[C@H](C(C)(C)C)[C@@H](C(=O)O)N(C(=O)C2C3CCCC32)[C@H]1c1ccccc1 (stereo partly drawn) [Example I-161]	Emax	> 200%
COc1ccc(S(F)(F)(F)(F)F)cc1CN[C@H]1[C@H](C(C)(C)C)[C@@H](C(=O)O)N(C(=O)C2CCCCC2)[C@H]1c1ccccc1 [Example I-86]	Emax	100 to 200%
COc1ccc(C(C)(C)C)cc1CN[C@H]1[C@H](C(C)(C)C)[C@@H](C(=O)O)N(C(=O)c2cc3occc3n2C)[C@H]1c1ccccc1 [Example I-102]	Emax	100 to 200%

----------
- TARGET: F508delCFTR (Homo sapiens, UniProt P13569, DEL508-508)
- Construct: expressed in transfected cells; host or cells: CFBE41o- human lung-derived epithelial cells (CFBE4lo-F508delCFTR-HRP), doxycycline-inducible
- ASSAY PROCEDURE: Cell Surface Expression-Horse Radish Peroxidase (CSE-HRP) Assay;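 for Maximum % activity (with co-corrector): co-corrector and positive control are both the same reference corrector at 2 µM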
- Type: cell-based
- ASSAY SETUP: CSE-HRP; with co-corrector (2 μM); maximum at any tested concentration, normalized to on-plate positive control
PROPERTY: Maximum % activity (with co-corrector)

COMPOUND	ASSAY VALUE
COC(=O)N1CCC[C@H](C(=O)N2[C@H](c3ccccc3)[C@H](Nc3cc(C(F)(F)F)cc(C)n3)[C@@H](C(C)(C)C)[C@@H]2C(=O)O)C1 (racemic)	+++ (≥350)
CC(C)(C)c1cc(CN[C@H]2[C@H](C(C)(C)C)[C@@H](C(=O)O)N(C(=O)C3CCCCC3)[C@H]2c2ccccc2)cc(C(C)(C)C)c1	++ (≥150 and <350)
COc1ccc(-c2cccnc2)cc1CN[C@H]1[C@H](C(C)(C)C)[C@@H](C(=O)O)N(C(=O)C2CCCCC2)[C@H]1c1ccccc1	+++ (≥350)
COc1cc(C#N)ccc1CN[C@@H]1[C@@H](C(C)(C)C)[C@H](C(=O)O)N(C(=O)C2CCCCC2)[C@@H]1c1ccccc1 (racemic)	+++ (≥350)
COc1cc2c(cc1CN[C@H]1[C@H](C(C)(C)C)[C@@H](C(=O)O)N(C(=O)C3CCCCC3)[C@H]1c1ccccc1)CCCC2	+++ (≥350)
COc1ccc(C#N)cc1CN[C@@H]1[C@@H](C(C)(C)C)[C@H](C(=O)O)N(C(=O)C2CCCCC2)[C@@H]1c1ccccc1 (racemic)	++ (≥150 and <350)
COc1cc(C(F)(F)F)ccc1CN[C@@H]1[C@@H](C(C)(C)C)[C@H](C(=O)O)N(C(=O)OC(C)C)[C@@H]1c1ccccc1N(C)C (racemic)	+++ (≥350)
COc1cc(C(F)(F)F)ccc1CN[C@H]1[C@H](C(C)(C)C)[C@@H](C(=O)O)N(C(=O)C2CCCCC2)[C@H]1c1cccnc1C	+++ (≥350)
COc1ccc(C(C)(C)C)cc1CN[C@H]1[C@H](C(C)(C)C)[C@@H](C(=O)O)N(C(=O)C(OC)c2cccc(Cl)c2)[C@H]1c1ccccc1 (single isomer, unassigned) [II-270]	+++ (≥350)
COc1cc(Cl)ccc1CN[C@@H]1[C@@H](C(C)(C)C)[C@H](C(=O)O)N(C(=O)OC(C)C)[C@@H]1c1ccccc1 (racemic)	+++ (≥350)
COc1ccc(C(C)(C)C)cc1CN[C@H]1[C@H](C2(C)CC2)[C@@H](C(=O)O)N(C(=O)C2CCCCC2)[C@H]1c1ccccc1	+++ (≥350)
COc1ccc(-c2cnccc2C)cc1CN[C@H]1[C@H](C(C)(C)C)[C@@H](C(=O)O)N(C(=O)C2CCCCC2)[C@H]1c1ccccc1	+++ (≥350)
